target: CDK9/cyclin T1 (Homo sapiens, UniProt P50750); test: Kinase assay CDK9/cyclin T1; settings: Ki calculated (Cheng-Prusoff) from experimentally determined IC50 and Km,ATP; read-out: Kinase Inhibition Ki CDK9 - cyclin T1
Sequence (P50750 whole entry, species assumed): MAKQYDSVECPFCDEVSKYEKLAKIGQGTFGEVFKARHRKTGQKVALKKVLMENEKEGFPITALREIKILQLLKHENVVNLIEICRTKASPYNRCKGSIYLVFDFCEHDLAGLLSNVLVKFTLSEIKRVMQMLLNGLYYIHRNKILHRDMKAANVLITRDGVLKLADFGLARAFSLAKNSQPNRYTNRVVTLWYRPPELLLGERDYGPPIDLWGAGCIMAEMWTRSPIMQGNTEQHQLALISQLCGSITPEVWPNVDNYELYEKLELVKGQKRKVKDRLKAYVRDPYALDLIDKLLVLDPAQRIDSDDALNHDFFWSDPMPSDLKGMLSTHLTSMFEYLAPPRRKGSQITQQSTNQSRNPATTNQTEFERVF
Sequence (O60563 whole entry partner, species assumed): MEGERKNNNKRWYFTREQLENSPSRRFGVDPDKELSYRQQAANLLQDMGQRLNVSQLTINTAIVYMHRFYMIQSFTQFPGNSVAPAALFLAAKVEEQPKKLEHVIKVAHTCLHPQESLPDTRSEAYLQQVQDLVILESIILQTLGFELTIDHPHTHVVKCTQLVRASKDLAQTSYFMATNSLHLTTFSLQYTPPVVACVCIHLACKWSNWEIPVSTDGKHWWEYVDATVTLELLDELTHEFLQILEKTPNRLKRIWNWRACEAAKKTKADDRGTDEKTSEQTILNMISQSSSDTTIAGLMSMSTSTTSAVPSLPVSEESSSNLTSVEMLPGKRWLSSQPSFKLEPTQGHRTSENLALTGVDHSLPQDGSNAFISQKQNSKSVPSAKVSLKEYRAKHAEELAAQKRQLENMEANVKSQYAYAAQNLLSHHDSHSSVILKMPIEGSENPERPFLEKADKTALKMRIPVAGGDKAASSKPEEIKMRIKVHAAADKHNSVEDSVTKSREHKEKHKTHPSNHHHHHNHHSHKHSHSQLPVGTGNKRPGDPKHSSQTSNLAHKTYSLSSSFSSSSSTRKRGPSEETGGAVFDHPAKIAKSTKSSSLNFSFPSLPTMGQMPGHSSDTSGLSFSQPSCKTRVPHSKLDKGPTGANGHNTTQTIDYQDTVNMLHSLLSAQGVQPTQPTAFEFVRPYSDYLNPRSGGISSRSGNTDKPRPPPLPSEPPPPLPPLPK
pKi: −log10 of the molar value.
Binning rule for recorded pKi: bucket A = under 7, bucket B = from 7 up to 8, bucket C = 8 and over

Consider the worked cases shown below.
Smiles Code: Cc1c(-c2ccnc(Nc3cccc(CNS(C)(=O)=O)c3)n2)sc(=O)n1C
Class Assignment: bucket C

Smiles Code: CCn1c(C)c(-c2ccnc(Nc3ccc(Cl)c(C(=O)O)c3)n2)sc1=O
Class Assignment: bucket A

q: Determine which band this molecule sits in: Cc1ccc(Nc2nccc(-c3sc(=O)n(C)c3C)n2)cc1I
a: bucket B

q: Another: Cc1c(-c2ccnc(Nc3ccc(Cl)c(C(F)(F)F)c3)n2)sc(=O)n1C
a: bucket B

q: Next: Cc1c(-c2ccnc(Nc3ccc(F)cc3)n2)sc(=O)n1C
a: bucket C

q: Now try Cc1c(-c2ccnc(NCc3cccnc3)n2)sc(=O)n1C .
a: bucket A
